# System: male rats
# assay.overview: Plasma metabolite profiling (GC-MS, LC-MS, SPE-LC-MS) in male rats dosed once daily over 28 days (OECD 407)
# Assay type: in vivo, rat
# experimental.context: m28; high dose; Table 10a
Where a name gives a salt, the structure may show the parent alone. Marks after values point to notes of the source that are not given here.
measure.name: 3-O-Methylsphingosine (d18:1)

// solved cases for 3-O-Methylsphingosine (d18:1) follow
>>> experimental_result("CC(C)C(=O)Nc1ccc([N+](=O)[O-])c(C(F)(F)F)c1 [Flutamide]")
"1.52^"
>>> experimental_result("Cn1cc[nH]c1=S [Methimazole]")
"4.59 *"
>>> experimental_result("CNCCC(Oc1ccc(C(F)(F)F)cc1)c1ccccc1 (stereo not shown) [Fluoxetine hydrochloride]")
"2.23 *"

Q) Consider the molecule Cc1cccc(C)c1N(Cn1cccn1)C(=O)CCl [Metazachlor] and give its measured 3-O-Methylsphingosine (d18:1).
A) 4.4 *

###

# System: male rats
# assay.overview: Plasma metabolite profiling (GC-MS, LC-MS, SPE-LC-MS) in male rats dosed once daily over 28 days (OECD 407)
# Type: in vivo, rat
# experimental.context: m14; high dose; Table 10a
Counter-ions that a name gives are not always drawn. Marks after values point to notes of the source that are not given here.
measure.name: threo-Sphingosine (d18:1)

Examples with their reported threo-Sphingosine (d18:1) follow.
>>> experimental_result("CNCCC(Oc1ccc(C(F)(F)F)cc1)c1ccccc1 (stereo not shown) [Fluoxetine hydrochloride]")
"1.45 *"
>>> experimental_result("Cc1cccc(C)c1N(Cn1cccn1)C(=O)CCl")
"3.13 *"
>>> experimental_result("Cn1cc[nH]c1=S")
"3.72 *"

Continue with the compound presented below.
Q) # lookup: threo-Sphingosine (d18:1) of CC(C)C(=O)Nc1ccc([N+](=O)[O-])c(C(F)(F)F)c1 [Flutamide]
A) 0.95

###

Please go through the items and note down their alpha-Tocopherol.
# System: male rats
# assay.overview: Plasma metabolite profiling (GC-MS, LC-MS, SPE-LC-MS) in male rats dosed once daily over 28 days (OECD 407)
# Type: in vivo, rat
# experimental.context: m7; high dose; Table 10a
Counter-ions that a name gives are not always drawn. Marks after values point to notes of the source that are not given here.

Use the examples below as a reference point.
>>> experimental_result("CNCCC(Oc1ccc(C(F)(F)F)cc1)c1ccccc1 (stereo not shown) [Fluoxetine hydrochloride]")
1.37
>>> experimental_result("CC(C)C(=O)Nc1ccc([N+](=O)[O-])c(C(F)(F)F)c1 [Flutamide]")
"1.55 *"
>>> experimental_result("Cc1cccc(C)c1N(Cn1cccn1)C(=O)CCl [Metazachlor]")
"1.71 *"

Q) GET /values?readout=alpha-Tocopherol&item= Cn1cc[nH]c1=S [Methimazole]
A) 1.76 *

###

# Test system: male rats
# assay.overview: Plasma metabolite profiling (GC-MS, LC-MS, SPE-LC-MS) in male rats dosed once daily over 28 days (OECD 407)
# Assay type: in vivo, rat
# experimental.context: m28; high dose; Table 14b
Counter-ions that a name gives are not always drawn.
measure.name: Cholesterol
Answers are plain numbers.

Guide cases for Cholesterol, answers given:
>>> experimental_result("C[C@]12CCC(=O)C=C1CC[C@@H]1[C@@H]2CC[C@@]2(C)[C@H]1CC[C@]2(C)O")
0.39
>>> experimental_result("C[C@]12C=CC3=C4CCC(=O)C=C4CCC3C1CC[C@@H]2O (stereo partly drawn)")
0.4
>>> experimental_result("O=C(c1ccc(OCCN2CCCCC2)cc1)c1c(-c2ccc(O)cc2)sc2cc(O)ccc12 [Raloxifene Hydrochloride]")
0.63
>>> experimental_result("CC/C(=C(\\c1ccccc1)c1ccc(OCCN(C)C)cc1)c1ccccc1")
0.51
>>> experimental_result("OCCNCCO")
0.69

Q) Look up Cholesterol for this compound: C#C[C@]1(O)CC[C@H]2[C@@H]3CCc4cc(O)ccc4[C@H]3CC[C@@]21C
A) 0.39
